Reference source for all entries: PubChem BioAssay AID555

System: mevalonate kinase [Streptococcus pneumoniae D39]
Assay: pneumococcal mevalonate kinase activity blockers – biochemical, PK/LDH-coupled NADH absorbance, primary screen (AID 555)
Details: purified MK, PK/LDH-coupled NADH absorbance 340 nm; at 10 µM
The campaign covered roughly 65,000 compounds. About 320 (0.49%) were called active.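 Rule for the calls: active = ranked among the strongest by inhibition in the single 10 µM screen, a fixed top-ranked set picked for dose follow-up; inactive = the rest, inconclusive results apart.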 Many of the other results were omitted from the sample, so actives are more common in it than they were.
The reply should be one of these categories: true (1) for active, false (0) for inactive

Example entries begin here.
Cc1cc(N=CC2=C(O)CCCC2=O)no1 :: false (0)
COc1ccccc1C(=O)Oc1ccc(N2C(=O)CCC2=O)cc1 :: false (0)
CCOc1ccc(-c2nnn(CC(=O)N3CCN(c4ccc(OC)cc4)CC3)n2)cc1OCC :: false (0)
O=C(CSc1nnc2ccccn12)c1ccccc1 :: false (0)
CC(C)N(C(=O)COC(=O)c1ccccc1C(=O)N1CCN(c2ccc(F)cc2)CC1)C(C)C :: false (0)
CC1CN(C2CCCCC2)c2nc3c(c(=O)n(C)c(=O)n3C)n2C1 (configuration not stated) :: false (0)

Now examine the next entry.
Tell me the recorded outcome of this test for "O=C1CCc2cc(S(=O)(=O)N3CCC(C(=O)NCc4ccccc4Cl)CC3)ccc2N1" .
false (0)
